measurement_target: gastrin receptor (Rattus norvegicus, UniProt P30553)
Construct: The stomach was excised and flushed with ca. 1 ml of unbuffered physiological saline solution; from tissue; host or cells: isolated whole stomach of immature rats (ca. 21 days old)
Sequence (P30553 1-452): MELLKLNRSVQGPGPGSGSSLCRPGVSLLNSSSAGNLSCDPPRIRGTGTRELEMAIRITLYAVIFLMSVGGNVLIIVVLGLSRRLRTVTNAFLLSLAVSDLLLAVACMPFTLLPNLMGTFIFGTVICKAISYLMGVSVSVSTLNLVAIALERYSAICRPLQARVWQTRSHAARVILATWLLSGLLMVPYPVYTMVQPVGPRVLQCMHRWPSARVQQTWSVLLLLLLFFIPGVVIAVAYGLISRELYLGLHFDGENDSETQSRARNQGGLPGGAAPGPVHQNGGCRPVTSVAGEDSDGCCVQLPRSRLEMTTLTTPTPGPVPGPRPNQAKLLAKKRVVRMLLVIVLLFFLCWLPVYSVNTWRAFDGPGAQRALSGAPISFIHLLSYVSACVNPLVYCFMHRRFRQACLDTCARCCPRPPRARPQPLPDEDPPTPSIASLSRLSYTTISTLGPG
assay_protocol: gastrin antagonist activity in immature rat stomach assay (pentagastrin dose-response, acid secretion)
setup_conditions: isolated immature rat stomach, cumulative pentagastrin dose-response curves, read-out: Gastrin pKb (converted)
measured_quantity: Kb (nM)

Reference set, count: 5
- Cc1ccc(NC(=O)c2nc(C3CCCCC3)[nH]c2CCC2CCCCCC2)cc1C(=O)O: 13.8
- Cc1ccccc1-c1nc(C(=O)Nc2cccc(C(=O)O)c2)c(COC23CC4CC(CC(C4)C2)C3)[nH]1: 24
- CCOC(=O)Cn1c(-c2ccccc2C)nc(C(=O)Nc2cccc(C(=O)O)c2)c1CCC12CC3CC(CC(C3)C1)C2: 186
- O=C(O)c1cc(NC(=O)c2nc(C3CCCCC3)[nH]c2CCC23CC4CC(CC(C4)C2)C3)cc(C(=O)O)c1: 380
- Cc1ccccc1-c1nc(CNc2cccc(C(=O)O)c2)c(CCC23CC4CC(CC(C4)C2)C3)n1C: 145

1: O=C(O)c1cccc(NC(=O)c2nc(-c3ccccc3)[nH]c2CC2CCCCCC2)c1
2: Cc1ccc(C(=O)O)cc1NC(=O)c1nc(C2CCCCC2)[nH]c1CCC12CC3CC(CC(C3)C1)C2
3: O=C(O)c1cccc(NC(=O)c2nc(C3CCCCCC3)[nH]c2COC23CC4CC(CC(C4)C2)C3)c1
Input: Put the items in sequence by Kb, from largest down. // rank by listing labels in the order requested
Output: 1, 2, 3
(1: 407 nM, 2: 263 nM, 3: 0.724 nM)

---

measurement_target: gastrin receptor (Rattus norvegicus, UniProt P30553)
Construct: The stomach was excised and flushed with ca. 1 ml of unbuffered physiological saline solution; from tissue; host or cells: isolated whole stomach of immature rats (ca. 21 days old)
Sequence (P30553 1-452): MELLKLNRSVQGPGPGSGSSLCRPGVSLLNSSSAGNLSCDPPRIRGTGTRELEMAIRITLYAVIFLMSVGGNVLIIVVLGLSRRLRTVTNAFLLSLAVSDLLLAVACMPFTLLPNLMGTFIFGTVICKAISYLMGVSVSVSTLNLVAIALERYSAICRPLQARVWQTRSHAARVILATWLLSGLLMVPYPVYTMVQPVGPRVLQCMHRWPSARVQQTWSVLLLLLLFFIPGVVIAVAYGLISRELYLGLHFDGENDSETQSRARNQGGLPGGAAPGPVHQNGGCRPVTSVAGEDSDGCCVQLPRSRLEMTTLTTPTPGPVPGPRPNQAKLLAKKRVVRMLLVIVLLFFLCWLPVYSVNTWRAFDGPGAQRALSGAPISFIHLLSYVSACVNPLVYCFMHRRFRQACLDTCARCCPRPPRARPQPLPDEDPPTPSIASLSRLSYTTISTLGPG
assay_protocol: gastrin antagonist activity in immature rat stomach assay (pentagastrin dose-response, acid secretion)
setup_conditions: isolated immature rat stomach, cumulative pentagastrin dose-response curves, read-out: Gastrin pKb (converted)
measured_quantity: Kb (µM)

* Cc1ccc(NC(=O)c2nc(-c3ccccn3)[nH]c2CCC23CC4CC(CC(C4)C2)C3)cc1C(=O)O [Example 179] | 0.0468
* Cc1cc(C)c(-c2nc(C(=O)Nc3cccc(C(=O)O)c3)c(COC34CC5CC(CC(C5)C3)C4)[nH]2)c(C)c1 [Example 226] | 0.0135

A: Cc1ccccc1-c1nc(CCc2cccc(C(=O)O)c2)c(CCC23CC4CC(CC(C4)C2)C3)[nH]1 [Example 280]
B: CN(CC(=O)O)C(=O)c1cccc(NC(=O)c2nc(C3CCCCC3)[nH]c2CCC23CC4CC(CC(C4)C2)C3)c1 [Example 266]
C: O=C(O)c1cccc(NC(=O)c2nc(C3CCC=CCC3)[nH]c2COC23CC4CC(CC(C4)C2)C3)c1 [Example 230]
Input: Hey, quick one: sort these by Kb, low to high? // rank by listing labels in the order requested
Output: C, B, A
(C: 0.00617 µM, B: 0.0191 µM, A: 1.82 µM)
